Assay read-out Ki on Adenosine receptor A1 (Homo sapiens); records merged from the literature.
So basically every entry gets a class from its Ki, ranges being low value: < 40 nM; medium value: ≥ 40 nM and < 2000 nM; high value: ≥ 2000 nM

| smiles entry | class |
| --- | --- |
| Cc1cccc2cc(-c3cc(O)c(O)c(O)c3)c(=O)oc12 | high value |
| Nc1nc(C(=O)NCc2ccc(Cl)cc2)cc(-c2ccco2)n1 | medium value |
| COC[C@H]1CCCN1c1cc(N)nc(-n2nc(C)cc2C)n1 | high value |
| Oc1c2nnnc-2nc2sccn12 | high value |
| O=C(NCc1ccccc1)Nc1nc2ccccc2n2c(=O)n(-c3ccccc3)nc12 | low value |
| CC(=O)Nc1cc(-c2cccc(N3CCCOCC3)n2)nc(-n2nc(C)cc2C)n1 | medium value |
| CCNC(=O)[C@H]1O[C@@H](n2cnc3c(NNC(=O)c4ccc(C)s4)ncnc32)[C@H](O)[C@@H]1O | medium value |
| O=c1[nH]c(=O)c2cc(-c3ccncn3)c(-c3ccco3)nc2[nH]1 | medium value |
| CCC(=O)Nc1cc(-c2ccco2)nc(-c2ccco2)n1 | low value |
| CCCn1c(=O)c2[nH]c(-c3cnn(Cc4ccccc4C(F)(F)F)c3)nc2n(CCC)c1=O | medium value |

###

Molecular target: Adenosine receptor A1 (Homo sapiens, UniProt P30542)
Sequence (P30542 whole entry): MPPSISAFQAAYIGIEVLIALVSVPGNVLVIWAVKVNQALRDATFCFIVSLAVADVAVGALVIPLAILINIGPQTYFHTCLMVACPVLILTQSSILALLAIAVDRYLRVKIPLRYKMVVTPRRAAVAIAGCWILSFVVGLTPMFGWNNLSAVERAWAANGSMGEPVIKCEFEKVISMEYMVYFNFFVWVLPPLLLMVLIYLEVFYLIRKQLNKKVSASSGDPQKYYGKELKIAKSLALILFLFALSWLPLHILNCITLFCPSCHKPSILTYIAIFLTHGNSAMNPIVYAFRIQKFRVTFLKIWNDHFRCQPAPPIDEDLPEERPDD
pKi: −log10 of the molar value.
Across several publications, the following pKi results were reported for Adenosine receptor A1 (Homo sapiens, UniProt P30542).

| smiles entry | assayed target | limit qualifier | pKi |
| --- | --- | --- | --- |
| Nc1nc(C(=O)NCc2cccc(CO)n2)cc(-c2ccco2)n1 | Adenosine receptor A1 (Homo sapiens, UniProt P30542) | = | 6.59 |
| Cn1c(=O)c2c(nc3n2CCN(Cc2csc(-c4cccc(Cl)c4)n2)C3)n(C)c1=O | Adenosine receptor A1 (Homo sapiens, UniProt P30542) | = | 7.14 |
| N#Cc1c(NC2CC2)nc(SCCO)c(C#N)c1-c1ccco1 | Adenosine receptor A1 (Homo sapiens, UniProt P30542) | = | 7.05 |
| Nc1nc2c(cnn2CCCc2ccc3c(c2)OCO3)c2nc(-c3ccco3)nn12 | Adenosine receptor A1 (Homo sapiens, UniProt P30542) | = | 5.66 |
| CCNC(=O)[C@H]1O[C@@H](n2cnc3c(NNC(=O)c4ccccc4)ncnc32)[C@H](O)[C@@H]1O | Adenosine receptor A1 (Homo sapiens, UniProt P30542) | < | 5.30 |
| Cc1cccc(-n2cc3c(n2)c(NC(=O)C(c2ccccc2)c2ccccc2)nc2ccccc23)c1 | Adenosine receptor A1 (Homo sapiens, UniProt P30542) | = | 6.25 |
| CCOC(=O)c1nc(NC(=O)c2ccccc2)nc2nn(C(C)C)cc12 | Adenosine receptor A1 (Homo sapiens, UniProt P30542) | = | 5.37 |
| CCOC(=O)CNc1ccc(-c2cn3c(=O)n(-c4ccccc4)nc3c(N)n2)cc1 | Adenosine receptor A1 (Homo sapiens, UniProt P30542) | = | 6.11 |
| Nc1ncnc2c1nc(Br)n2CCc1ccccc1 | Adenosine receptor A1 (Homo sapiens, UniProt P30542) | = | 4.92 |
| Nc1nc(C(=O)NCc2ccccc2Cl)cc(-c2ccco2)n1 | Adenosine receptor A1 (Homo sapiens, UniProt P30542) | = | 7.14 |
| CC(=O)Nc1cc(N2CCCCC2)nc(-n2nc(C)cc2C)n1 | Adenosine receptor A1 (Homo sapiens, UniProt P30542) | = | 5.47 |
| O=c1[nH]c2nc(-c3cnn(Cc4cccc(F)c4)c3)[nH]c2c(=O)n1CC1CC1 | Adenosine receptor A1 (Homo sapiens, UniProt P30542) | = | 6.68 |
| Cc1ccc(CNC(=O)c2cc(-c3ccco3)nc(N)n2)cc1 | Adenosine receptor A1 (Homo sapiens, UniProt P30542) | = | 6.99 |
| CC[C@H](C)Nc1nc2nn(C)cc2c2nc(-c3ccco3)nn12 | Adenosine receptor A1 (Homo sapiens, UniProt P30542) | = | 6.89 |
| CCCCCN(CCCCC)c1nc2nn(C)cc2c2nc(-c3ccco3)nn12 | Adenosine receptor A1 (Homo sapiens, UniProt P30542) | = | 5.48 |
| Oc1nc2ccccc2c2nn(-c3ccc(Cl)cc3)cc12 | Adenosine receptor A1 (Homo sapiens, UniProt P30542) | < | 6.00 |
| Nc1nc(CCc2ccccc2)nc2c1ncn2[C@@H]1O[C@H](CO)[C@@H](O)[C@H]1O | Adenosine receptor A1 (Homo sapiens, UniProt P30542) | = | 5.71 |
| O[C@@H]1[C@H](O)[C@@H]2C[C@@H]2[C@H]1n1cnc2c(NC(C3CCC3)C3CCC3)nc(Cl)nc21 | Adenosine receptor A1 (Homo sapiens, UniProt P30542) | = | 6.02 |
| Cn1ncc2nc(N3CCOCC3)n3nc(-c4ccco4)nc3c21 | Adenosine receptor A1 (Homo sapiens, UniProt P30542) | < | 6.00 |
| CCOC(=O)[C@@]12C[C@@H]1[C@@H](n1cnc3c(NCc4cccc(Cl)c4)nc(SC)nc31)[C@H](O)[C@@H]2O | Adenosine receptor A1 (Homo sapiens, UniProt P30542) | = | 5.18 |
| O=C(Cc1ccccc1)Nc1nc(-c2ccccc2)c(-c2ncon2)s1 | Adenosine receptor A1 (Homo sapiens, UniProt P30542) | = | 5.77 |

###

From various publications: pKi for the protein given by its sequence.
Target chain: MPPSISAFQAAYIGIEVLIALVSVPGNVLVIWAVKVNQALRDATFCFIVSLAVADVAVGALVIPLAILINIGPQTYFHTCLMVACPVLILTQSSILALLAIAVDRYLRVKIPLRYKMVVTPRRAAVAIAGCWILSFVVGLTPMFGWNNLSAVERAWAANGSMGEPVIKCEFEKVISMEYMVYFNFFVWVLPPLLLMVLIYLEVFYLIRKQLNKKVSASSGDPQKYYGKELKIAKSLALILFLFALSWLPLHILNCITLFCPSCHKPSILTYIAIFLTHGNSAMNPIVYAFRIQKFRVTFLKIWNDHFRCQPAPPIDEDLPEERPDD
pKi: −log10 of the molar value.

| smiles entry | limit qualifier | pKi |
| --- | --- | --- |
| CCN(C(C)=O)c1ccc(OC)c2nc(NC(=O)N3CCC(c4cccc(C(F)(F)F)c4)CC3)sc12 | = | 8.30 |
| N#Cc1sc(=S)n(CCc2ccccc2)c1/N=C/c1ccc(F)cc1 | = | 6.05 |
| O=c1[nH]c2nc(-c3cnn(Cc4cc(-c5ccc(C(F)(F)F)cc5)on4)c3)[nH]c2c(=O)n1CC1CC1 | < | 5.22 |
| OCCNc1nc(-c2ccco2)c2sccc2n1 | = | 6.06 |
| COc1ccc(-c2nc(CSc3nc(N)c(C#N)c(-c4ccc5c(c4)OCO5)n3)cs2)cc1 | = | 8.74 |
| CCNC(=O)[C@H]1O[C@@H](n2cnc3c(Nc4ccc(OCC(=O)Nc5ccncc5)cc4)ncnc32)[C@H](O)[C@@H]1O | = | 7.95 |
| CN(CCCc1ccccn1)C(=O)c1cnc2c(CNC(=O)c3nc(N)nc4c(F)cccc34)cccc2c1 | = | 6.68 |
| CCOC(=O)c1nc(NC(=O)c2ccc(C)cc2)nc2nn(C(C)C)cc12 | = | 6.15 |
| CCCn1c(=O)c2[nH]c(-c3ccc(OCc4nc(-c5ccc(C(F)(F)F)cc5)no4)cc3)nc2n(CCC)c1=O | = | 5.93 |

###

Biological target: Adenosine receptor A1 (Homo sapiens)
Sequence (P30542 whole entry): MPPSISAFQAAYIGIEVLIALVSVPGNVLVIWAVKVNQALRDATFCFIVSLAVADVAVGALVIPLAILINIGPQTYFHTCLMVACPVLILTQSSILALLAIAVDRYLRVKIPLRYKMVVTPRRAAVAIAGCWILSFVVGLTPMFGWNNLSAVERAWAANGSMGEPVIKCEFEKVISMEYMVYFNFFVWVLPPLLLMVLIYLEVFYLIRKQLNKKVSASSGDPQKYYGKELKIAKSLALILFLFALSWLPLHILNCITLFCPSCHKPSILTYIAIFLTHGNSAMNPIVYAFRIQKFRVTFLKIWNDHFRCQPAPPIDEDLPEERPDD
pKi: −log10 of the molar value.
The entries below pair compounds with pKi values for Adenosine receptor A1 (Homo sapiens), as found in several publications.

| compound | limit qualifier | pKi |
| --- | --- | --- |
| Cn1cc2c(nc(NC(=O)Cc3c(Cl)cccc3Cl)n3nc(-c4ccco4)nc23)n1 | = | 6.04 |
| Cn1cc2c(nc(N)n3nc(-c4ccc(Br)cc4)nc23)n1 | = | 5.54 |
| CCCn1c(=O)c2c(nc3[nH]c(CC)c(C)n32)n(Cc2ccccc2)c1=O | < | 6.00 |
| CCc1nc2c(=O)n(Cc3ccccc3)nc(-c3cccnc3)c2c2cc(-c3ccccc3)nn12 | = | 6.74 |
| CCCCOc1ccnc2c(CNC(=O)c3nc(N)nc4c(F)cccc34)cccc12 | = | 6.13 |
| Cn1cc2c(nc(NC(=O)Nc3cc4ccccc4o3)n3nc(-c4ccco4)nc23)n1 | < | 6.00 |
| COc1ccc(-c2cn3c(=O)n(-c4ccccc4)nc3c(N)n2)c(OC)c1 | = | 7.55 |
| C=CCCn1cnc2c(N)ncnc21 | < | 4.00 |
| CC1C(=O)c2nc(CCN3N=C(Cl)CCC3=O)[nH]c2N(C)C1=O (stereo not given) | = | 4.83 |
| Cc1ccccc1CNC(=O)c1nc(N)nc2c(F)cccc12 | = | 6.94 |
| N#Cc1cccc2c(C(=O)NCc3cccc4cccnc34)nc(N)nc12 | = | 6.47 |
| CCCn1c(=O)c2[nH]c(-c3cc(OCC(=O)Nc4ccc(OC)c(OC)c4)nn3C)nc2n(CCC)c1=O | < | 6.00 |
| CCCn1c(=O)c2[nH]c(-c3cnn(Cc4ccccc4F)c3)nc2n(CCC)c1=O | = | 7.72 |
| c1ccc(-c2nc(-c3ccccc3)c3[nH]cnc3n2)cc1 | = | 8.39 |
| N#Cc1c(N)nc(SCc2csc(-c3ccc([N+](=O)[O-])cc3)n2)nc1-c1ccc2c(c1)OCO2 | = | 7.96 |
| Cn1c(=O)c2[nH]c(-c3ccc(OCC(=O)N4CCN(c5ccccc5)CC4)cc3)cc2n(C)c1=O | = | 6.30 |
| Cn1cc2c(nc(N=C(Nc3ccc([N+](=O)[O-])cc3)Nc3ccc([N+](=O)[O-])cc3)n3nc(-c4ccco4)nc23)n1 | < | 6.00 |
| N#Cc1c(N)nc(SCc2csc(-c3ccc(Cl)cc3)n2)nc1-c1ccc(O)cc1 | = | 7.82 |
| CC(C)(C)c1cc(C(=O)NCCC(=O)Nc2ccc(-c3cn4c(=O)n(-c5ccccc5)nc4c(N)n3)cc2)cc(C(C)(C)C)c1O | < | 4.52 |
| CCCC(=O)Nc1nc(-c2ccccc2)cc(-c2ccc3c(c2)OCO3)n1 | = | 7.37 |
